Biological target: Thromboxane-A synthase (Homo sapiens, UniProt P24557)
Sequence (P24557 whole entry): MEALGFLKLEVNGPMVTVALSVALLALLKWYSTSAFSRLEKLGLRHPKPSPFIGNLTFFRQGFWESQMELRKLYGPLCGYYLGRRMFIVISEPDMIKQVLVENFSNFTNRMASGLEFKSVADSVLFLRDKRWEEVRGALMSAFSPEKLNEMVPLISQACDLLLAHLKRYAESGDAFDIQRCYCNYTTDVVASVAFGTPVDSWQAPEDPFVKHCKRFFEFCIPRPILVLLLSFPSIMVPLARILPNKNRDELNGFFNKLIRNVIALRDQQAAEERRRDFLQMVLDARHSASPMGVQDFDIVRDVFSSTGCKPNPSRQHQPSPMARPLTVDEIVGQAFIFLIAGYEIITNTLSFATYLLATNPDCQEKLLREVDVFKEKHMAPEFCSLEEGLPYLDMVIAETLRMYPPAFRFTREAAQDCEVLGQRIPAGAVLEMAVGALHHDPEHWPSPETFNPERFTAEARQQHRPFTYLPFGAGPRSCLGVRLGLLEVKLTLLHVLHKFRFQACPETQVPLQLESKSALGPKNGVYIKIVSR
Test: Inhibition of human platelet thromboxane synthase (TXA2) was determined in human platelets
Kindly state pIC50 for each of the entries shown.
FYI, pIC50 means -log10 of a concentration in mol per litre.

The reported Thromboxane-A synthase (Homo sapiens, UniProt P24557) pIC50 of `COc1ccc2c(=O)n3cc(C(=O)NCCCCc4cccnc4)ccc3nc2c1` is 7.70

The reported Thromboxane-A synthase (Homo sapiens, UniProt P24557) pIC50 of `CC(C)c1ccc2nc3ccc(C(=O)NCCCCc4cncnc4)cn3c(=O)c2c1` is 6.70

The reported Thromboxane-A synthase (Homo sapiens, UniProt P24557) pIC50 of `COc1ccc2nc3ccc(C(=O)NCCCCc4cccnc4)cn3c(=O)c2c1` is 6.70

The reported Thromboxane-A synthase (Homo sapiens, UniProt P24557) pIC50 of `CC(C)c1ccc2nc3ccc(C(=O)NCCCCOc4cccnc4)cn3c(=O)c2c1.Cl.Cl` is 7.30

The reported Thromboxane-A synthase (Homo sapiens, UniProt P24557) pIC50 of `O=C(NCCCCc1cccnc1)c1ccc2nc3cc4c(cc3c(=O)n2c1)CCCC4` is 6.52

The reported Thromboxane-A synthase (Homo sapiens, UniProt P24557) pIC50 of CC(CCc1cccnc1)NC(=O)c1ccc2nc3ccc(C(C)C)cc3c(=O)n2c1 (stereo not drawn) is 6.52

The reported Thromboxane-A synthase (Homo sapiens, UniProt P24557) pIC50 of `CC(C)c1ccc2nc3ccc(C(=O)NCCCCCCCc4cccnc4)cn3c(=O)c2c1` is 6.70

The reported Thromboxane-A synthase (Homo sapiens, UniProt P24557) pIC50 of `O=C(NCCCCc1cccnc1)c1ccc2nc3ccc(O)cc3c(=O)n2c1` is 7.30

The reported Thromboxane-A synthase (Homo sapiens, UniProt P24557) pIC50 of `CC(C)Oc1ccc2nc3ccc(C(=O)NCCCCc4cccnc4)cn3c(=O)c2c1` is 7.22

The reported Thromboxane-A synthase (Homo sapiens, UniProt P24557) pIC50 of `Cc1cc2nc3ccc(C(=O)NCCCCc4cccnc4)cn3c(=O)c2cc1C` is 7.00

The reported Thromboxane-A synthase (Homo sapiens, UniProt P24557) pIC50 of `CC(C)c1ccc2nc3ccc(C(=O)NC(C)(C)CCCc4cccnc4)cn3c(=O)c2c1` is 6.30

The reported Thromboxane-A synthase (Homo sapiens, UniProt P24557) pIC50 of `O=C(NCCCCc1cccnc1)c1ccc2nc3cc(Cl)ccc3c(=O)n2c1` is 7.70

The reported Thromboxane-A synthase (Homo sapiens, UniProt P24557) pIC50 of `CC(C)c1ccc2nc3ccc(C(=O)NCCCCn4ccnc4)cn3c(=O)c2c1.Cl.Cl` is 6.70

The reported Thromboxane-A synthase (Homo sapiens, UniProt P24557) pIC50 of `Cc1ccc2nc3ccc(C(=O)NCCCCc4cccnc4)cn3c(=O)c2c1` is 7.00

The reported Thromboxane-A synthase (Homo sapiens, UniProt P24557) pIC50 of `CC(C)c1ccc2nc3ccc(C(=O)NCCSCc4cccnc4)cn3c(=O)c2c1` is 6.22

The reported Thromboxane-A synthase (Homo sapiens, UniProt P24557) pIC50 of `O=C(NCCCCc1cccnc1)c1ccc2nc3ccccc3c(=O)n2c1` is 7.70

The reported Thromboxane-A synthase (Homo sapiens, UniProt P24557) pIC50 of `CC(C)c1ccc2nc3ccc(C(=O)N(C)CCCCc4cccnc4)cn3c(=O)c2c1` is 6.22

The reported Thromboxane-A synthase (Homo sapiens, UniProt P24557) pIC50 of `O=C(NCCCCc1cccnc1)c1ccc2nc3ccc(Br)cc3c(=O)n2c1` is 7.00
